All figures here come from paper PMC12864922.

SYSTEM TESTED: TDP-43 (Homo sapiens, UniProt Q13148 1-414)
Sequence (Q13148 whole entry): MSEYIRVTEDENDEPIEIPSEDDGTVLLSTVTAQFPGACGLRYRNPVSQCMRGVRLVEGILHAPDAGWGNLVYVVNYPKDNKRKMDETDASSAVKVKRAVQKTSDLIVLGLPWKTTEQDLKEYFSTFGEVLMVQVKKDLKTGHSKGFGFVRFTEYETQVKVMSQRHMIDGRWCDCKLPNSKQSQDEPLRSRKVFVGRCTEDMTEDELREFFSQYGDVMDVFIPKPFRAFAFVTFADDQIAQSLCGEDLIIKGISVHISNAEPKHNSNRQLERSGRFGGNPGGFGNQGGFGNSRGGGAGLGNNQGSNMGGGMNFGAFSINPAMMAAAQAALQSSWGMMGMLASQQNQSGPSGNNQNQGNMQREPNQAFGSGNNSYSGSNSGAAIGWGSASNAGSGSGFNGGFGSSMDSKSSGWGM
MEASUREMENT DESCRIPTION: RNA Bind-n-Seq with designed 260-mer pool; 25 mM Tris-HCl, 150 mM KCl, 3 mM MgCl2, BSA (printed 500 mg/mL), 20 units/mL SUPERase IN; pH not stated; 500 nM RNA pool, 1 h, 4 C; TDP-43 5, 50, 500 nM; high values mean tight binding
CONDITION NOTES: protein: recombinant; tags: SBP (GST cleaved off with PreScission; pGEX-GST-SBP)
Over roughly 9,900 sequences, “r (bound/input frequency ratio)” has its median near 0.7; the highest 2% begin near 6.5. For the sample, the highest values were picked, then their nearest neighbours and some sequences at random.
PROPERTY LABEL: binding signal

// binding signal lookup, binder = ENSMUSG00000031028.482|Tub|17:22;129:135;166:172 (ssRNA) RNA: GGGAGUUCUACAGUCCGACGAUCGCUUCGAUAUCCGCAUGCUAGGCGACUGUCAAGGAACACACAUGUCAGUUCACUGGAGGAGGAGCUGAGAUGUGCACCCUUUUAAAUGAACAUGGGGUGGUGAUGGUGCCUUAACAAUCUUGACACUAAGGUGAAGCAAGCAAGUAAGCACACACCCUCUGGGAAGACAGGAGUCGGAAGCCAAGCACACACGCAACAGUCUGGAAGAGAGCUUUUGGUAAUCAUACCGUCUUCAGUGACAAGGCAACAAUGCUGUAAAGUGGGUUUGUUUGGUUUUGUUCUCUUGCGGUCGCACUAGUGUGGAAUUCUCGGGUGUCAAGG , result: 1.47 R (bound/input frequency ratio)

// binding signal lookup, binder = ENSMUSG00000031028.483|Tub (ssRNA) RNA: GGGAGUUCUACAGUCCGACGAUCGCUUCGAUAUCCGCAUGCUAUGUCAAGGAAGUGUGUUGUCAGUUCACUGGAGGAGGAGCUGAGAUGUGCACCCUUUUAAAUGAACAUGGGGUGGUGAUGGUGCCUUAACAAUCUUGACACUAAGGUGAAGCAAGCAAGUAAGGUGUGUGCCUCUGGGAAGACAGGAGUCGGAAGCCAAGGUGUGUGGCAACAGUCUGGAAGAGAGCUUUUGGUAAUCAUACCGUCUUCAGUGACAAGGCAACAAUGCUGUAAAGUGGGUUUGUUUGGUUUUGUUUUUUCUCUCUUGCGGUCGCACUAGUGUGGAAUUCUCGGGUGUCAAGG , result: 3.98 R (bound/input frequency ratio)
